measurement.target: Bcl-xL/BAK (Homo sapiens, UniProt Q07817)
Sequence (Q07817 whole entry): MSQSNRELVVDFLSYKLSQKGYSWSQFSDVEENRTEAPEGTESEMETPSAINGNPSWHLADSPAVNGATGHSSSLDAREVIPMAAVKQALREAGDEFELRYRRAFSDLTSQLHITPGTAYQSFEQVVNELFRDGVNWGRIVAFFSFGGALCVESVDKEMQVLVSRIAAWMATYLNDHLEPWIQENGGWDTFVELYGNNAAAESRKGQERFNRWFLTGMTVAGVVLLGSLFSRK
Sequence (Q16611 whole entry, further chain): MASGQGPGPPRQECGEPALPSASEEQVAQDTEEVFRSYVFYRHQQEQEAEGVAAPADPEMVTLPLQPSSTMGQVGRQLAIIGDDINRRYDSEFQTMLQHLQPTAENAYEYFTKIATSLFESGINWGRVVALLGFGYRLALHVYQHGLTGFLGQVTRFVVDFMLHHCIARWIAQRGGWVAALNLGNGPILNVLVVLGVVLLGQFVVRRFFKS
protocol.details: Inhibition of Bcl-XL-BAK interaction
pEC50 values, listed per item
// field semantics: pEC50 = negative decimal log of concentration (mol/L)

| substance.smiles | pEC50 |
| --- | --- |
| O=C(NS(=O)(=O)CC12CC3CCC(CC(C3)C1)C2)c1ccc(N2CCN(Cc3ccccc3-c3ccc(Cl)cc3)CC2)cc1 | 6.66 |
| O=C(NS(=O)(=O)CC12CC3CC(CC(C3)C1)C2)c1ccc(N2CCN(Cc3ccccc3-c3ccc(Cl)cc3)CC2)cc1 | 5.55 |

Here's the next entry for you.
Assign pEC50 to the following record: CC1(C)[C@]2(C)CC[C@@H](CS(=O)(=O)NC(=O)c3ccc(N4CCN(Cc5ccccc5-c5ccc(Cl)cc5)CC4)cc3)[C@@]1(C)C2
6.24
